Source: patent US20140357844A1

Target: T1, human Trop-2-hFc (human, UniProt P09758 27-274)
T1 construct: also called huTrop-2; human Trop-2 human Fc fusion protein; not shown: human Fc
T1 sequence: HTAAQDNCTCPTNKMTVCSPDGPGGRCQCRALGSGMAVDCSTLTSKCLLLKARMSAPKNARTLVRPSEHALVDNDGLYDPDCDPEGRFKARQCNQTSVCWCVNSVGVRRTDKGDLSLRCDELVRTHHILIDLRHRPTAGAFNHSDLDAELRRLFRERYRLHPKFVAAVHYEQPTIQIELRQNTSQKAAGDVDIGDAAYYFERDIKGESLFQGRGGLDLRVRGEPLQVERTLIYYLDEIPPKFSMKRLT
Assay: SPR (Biacore T200), human Trop-2-hFc captured by anti-human Fc, Fab as analyte
reported.property: koff (s⁻¹)
State the answer as a number, implicitly in s⁻¹.

Problem: Item h7E6-WT recombinant Fab fragment (Fab, V domains shown, Recombinant Fab) VH: QVQLQESGPGLVKPSETLSLTCTVSGGSISSYGVHWIRQPPGKGLEWIGVIWTGGSTDYNSALMSRVTISVDTSKNQFSLKLSSVTAADTAVYYCARDGDYDRYTMDYWGQGTLVTVSS VL: DIVMTQSPDSLAVSLGERATINCRASKSVSTSGYSYMHWYQQKPGQPPKLLIYLASNLESGVPDRFSGSGSGTDFTLTISSLQAEDVAVYYCQHSRELPYTFGQGTKLEIK has what recorded koff?
Solution: 0.00294

Problem: Entry h7E6_SVG Fab (Fab, V domains shown, also called DG (h7E6_SVG)) VH: QVQLQESGPGLVKPSETLSLTCTVSGGSISSYGVHWIRQPPGKGLEWIGVIWTSGVTDYNSALMGRVTISVDTSKNQFSLKLSSVTAADTAVYYCARDGDYDRYTMDYWGQGTLVTVSS VL: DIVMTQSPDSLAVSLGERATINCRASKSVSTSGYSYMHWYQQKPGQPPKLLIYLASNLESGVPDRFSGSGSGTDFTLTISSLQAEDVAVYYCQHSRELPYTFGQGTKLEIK please
Solution: 0.000435

Problem: What do you get for h7E6_SVGL recombinant Fab fragment (Fab, V domains shown, Recombinant Fab) VH: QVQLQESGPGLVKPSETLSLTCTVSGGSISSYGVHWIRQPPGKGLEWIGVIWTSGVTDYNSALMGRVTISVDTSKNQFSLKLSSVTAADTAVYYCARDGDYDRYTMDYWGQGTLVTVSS VL: DIVMTQSPDSLAVSLGERATINCRASKSVSTSLYSYMHWYQQKPGQPPKLLIYLASNLESGVPDRFSGSGSGTDFTLTISSLQAEDVAVYYCQHSRELPYTFGQGTKLEIK ?
Solution: 3.27e-05
